Test system: H929 human cancer cell lines
Assay: Cellular viability / proliferation (Cell TiterGlo, 72 h)
Assay type: cell-based
Details: Homo sapiens, NCI-H929, 72 h, read-out: GI50 on cellular proliferation of H929 human cancer cell lines, H929 cells, 72 h, Cell TiterGlo, 10% FBS
measured-metric: GI50

>>> observed_measurement("Cc1cc(OCCCc2c3n(c4c(-c5c(C)nn(C)c5C)c(Cl)ccc24)[C@H](C)CN(c2cccc4cc5n(c24)CCN(C)C5=O)C3=O)cc(C)c1Cl")
"2600 nM"
>>> observed_measurement("Cc1ccnc(Cn2c(C(=O)O)cc3cc(C)cc(N4C[C@@H](C)n5c(c(CCCOc6cc(C)c(Cl)c(C)c6)c6ccc(Cl)c(-c7c(C)ncnc7C)c65)C4=O)c32)c1")
"230 nM"
>>> observed_measurement("Cc1cc(OCCCc2c3n(c4c(-c5c(C)nn(C)c5C)c(Cl)ccc24)[C@H](C)CN(c2cc(Oc4ccccn4)cc4cc(C(=O)O)n(C)c24)C3=O)cc(C)c1Cl")
"750 nM"

----------
Readings of Ki for the listed molecules
Target: UniProt:Q07820
Assay: TR-FRET binding assay, FITC-Bak peptide and MBP-tagged Mcl-1
Conditions: read-out: Ki for Inhibition of Mcl-1 by TR-FRET assay
measured-metric: Ki (nM)

>>> observed_measurement("Cc1cc(OCCCc2c3n(c4c(-c5c(C)nn(C)c5C)c(Cl)ccc24)[C@H](C)CN(c2cn(C)c4ccc(-c5nnc6ccccn56)cc24)C3=O)cc(C)c1Cl")
28
>>> observed_measurement("Cc1cc(OCCCc2c3n(c4c(-c5c(C)nn(C)c5C)c(Cl)ccc24)[C@H](C)CN(c2cc(COCc4cscn4)cc4cc(C(=O)O)n(C)c24)C3=O)cc(C)c1Cl")
0.22
>>> observed_measurement("COCCn1cc(N2C[C@@H](C)n3c(c(CCCOc4cc(C)c(Cl)c(C)c4)c4ccc(Cl)c(-c5c(C)nn(C)c5C)c43)C2=O)c2cc(-c3ncn(C)n3)ccc21")
0.28

----------
Target: UniProt:Q07820
Assay: Fluorescence polarization anisotropy (FPA) competition assay, FITC-Bak or FITC-Bim BH3 peptide
Assay type: binding
Settings: read-out: Ki for Inhibition of Mcl-1 by FPA assay
pKi: −log10 of the molar value.
measured-metric: pKi

>>> observed_measurement("Cc1cc(OCCCc2c3n(c4c(-c5c(C)nn(C)c5C)c(Cl)ccc24)[C@H](C)CN(c2cc(Cl)cc4cc(C(=O)O)oc24)C3=O)cc(C)c1Cl [Example 259]")
"> 9.00"
>>> observed_measurement("Cc1cc(OCCCc2c3n(c4c(-c5c(C)nn(CC6CCOCC6)c5C)c(Cl)ccc24)[C@H](C)CN(c2cn(C)c4ccc(C(=O)O)cc24)C3=O)cc(C)c1Cl")
"> 9.00"
>>> observed_measurement("Cc1cc(OCCCc2c3n(c4c(-c5c(C)nn(C)c5C)c(Cl)ccc24)CCCN(c2cc(C(=O)O)cc4nn(C)cc24)C3=O)cc(C)c1Cl")
"> 9.00"
>>> observed_measurement("CC(=O)c1ccc2c(c1)c(N1C[C@@H](C)n3c(c(CCCOc4cc(C)c(Cl)c(C)c4)c4ccc(Cl)c(-c5c(C)nn(C)c5C)c43)C1=O)cn2C")
"> 9.00"
>>> observed_measurement("Cc1cc(OCCCc2c3n(c4c(-c5c(C)nc(COCc6ccccc6)nc5C)c(Cl)ccc24)CCCN(c2cn(C)c4ccc(C(=O)O)cc24)C3=O)cc(C)c1Cl")
"> 9.00"
>>> observed_measurement("Cc1nnc(Cn2c(C(=O)O)cc3cccc(N4C[C@@H](C)n5c(c(CCCOc6cc(C)c(Cl)c(C)c6)c6ccc(Cl)c(-c7c(C)nn(C)c7C)c65)C4=O)c32)o1")
"> 9.00"
>>> observed_measurement("Cc1cc(OCCCc2c3n(c4c(-c5c(C)nn(C)c5C)c(Cl)ccc24)[C@H](C)CN(c2cn(C)c4ccc(C(=O)NCc5ccccn5)cc24)C3=O)cc(C)c1Cl")
8.66
>>> observed_measurement("Cc1cc(OCCCc2c3n(c4c(-c5c(C)nn(C)c5C)c(Cl)ccc24)[C@H](C)CN(c2cc(OCCN4CCCC4)cc4cc(C(=O)O)n(C)c24)C3=O)cc(C)c1Cl")
8.77
>>> observed_measurement("CCCn1cc(N2C[C@@H](C)n3c(c(CCCOc4cc(C)c(Cl)c(C)c4)c4ccc(Cl)c(-c5c(C)nn(C)c5C)c43)C2=O)c2cc(C(=O)O)ccc21")
"> 9.00"
>>> observed_measurement("COCCCc1c2n(c3c(-c4c(C)nn(C)c4C)c(Cl)ccc13)[C@H](C)CN(c1cn(C)c3ccc(C(=O)O)cc13)C2=O")
"< 6.60"
>>> observed_measurement("Cc1cc(OCCCc2c3n(c4c(-c5c(C)nn(C)c5C)c(Cl)ccc24)CCCN(c2cc(C(=O)O)cc4c2ccn4S(C)(=O)=O)C3=O)cc(C)c1Cl")
"> 9.00"

----------
System: H929 human cancer cell lines
Test: Cellular viability / proliferation (Cell TiterGlo, 72 h)
Assay type: cell-based
Details: Homo sapiens, NCI-H929, 72 h, read-out: GI50 on cellular proliferation of H929 human cancer cell lines, H929 cells, 72 h, Cell TiterGlo, 10% FBS
Readings of GI50 for the listed compounds
measured-metric: GI50

>>> observed_measurement("COc1ccc(Cn2c(C(=O)O)cc3cccc(N4C[C@@H](C)n5c(c(CCCOc6cc(C)c(Cl)c(C)c6)c6ccc(Cl)c(-c7c(C)nn(C)c7C)c65)C4=O)c32)nc1 [Example 382]")
"750 nM"
>>> observed_measurement("CCn1ncc2c(C(=O)O)cc(N3CCCn4c(c(CCCOc5cc(C)c(Cl)c(C)c5)c5ccc(Cl)c(-c6c(C)nn(C)c6C)c54)C3=O)cc21 [Example 39]")
"920 nM"
>>> observed_measurement("Cc1cc(OCCCc2c3n(c4c(-c5c(C)nn(CCN6CCCC6)c5C)c(Cl)ccc24)[C@H](C)CN(c2cn(C)c4ccc(C(=O)O)cc24)C3=O)cc(C)c1Cl [Example 263]")
"270 nM"

----------
Target: Mcl-1 (Homo sapiens (Human))
Sequence (Q07820 172-327): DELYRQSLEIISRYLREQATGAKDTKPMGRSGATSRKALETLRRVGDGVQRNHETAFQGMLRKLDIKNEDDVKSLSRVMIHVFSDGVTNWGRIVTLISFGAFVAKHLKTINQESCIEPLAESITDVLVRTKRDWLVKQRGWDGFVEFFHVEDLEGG
Assay: Fluorescence polarization anisotropy (FPA) competition assay, FITC-Bak or FITC-Bim BH3 peptide
Assay type: binding
Conditions: read-out: Ki for Inhibition of Mcl-1 by FPA assay
Readings of Ki for the listed molecules
measured-metric: Ki (nM)

>>> observed_measurement("Cc1cc(OCCCc2c3n(c4c(-c5c(C)nn(C)c5C)c(Cl)ccc24)[C@H](C)CN(c2cc4cc(C(=O)O)ccc4n2C)C3=O)cc(C)c1Cl")
4.2
>>> observed_measurement("Cc1ccc(Cn2c(C(=O)O)cc3cccc(N4C[C@@H](C)n5c(c(CCCOc6cc(C)c(Cl)c(C)c6)c6ccc(Cl)c(-c7c(C)nn(C)c7C)c65)C4=O)c32)nc1")
1.6
>>> observed_measurement("Cc1cc(OCCCc2c3n(c4c(-c5c(C)nn(C)c5C)c(Cl)ccc24)[C@H](C)CN(c2cc4ccc(C(=O)O)cc4n2C)C3=O)cc(C)c1Cl")
2.1
>>> observed_measurement("Cc1cc(OCCCc2c3n(c4c(-c5c(C)nn(C)c5C)c(Cl)ccc24)CCCN(c2cc(C(=O)O)c4ncn(C)c4c2)C3=O)cc(C)c1Cl")
2.2
>>> observed_measurement("Cc1cc(OCCCc2c3n(c4c(-c5c(C)nn(C)c5C)c(Cl)ccc24)[C@H](C)CN(c2cn(C)c4ccc(-c5cnccn5)cc24)C3=O)cc(C)c1Cl")
1.9
>>> observed_measurement("Cc1cc(OCCCc2c3n(c4c(-c5c(C)nn(C)c5C)c(Cl)ccc24)[C@H](C)CN(c2cccc4cc(C#N)n(C)c24)C3=O)cc(C)c1Cl")
2

----------
Tested on: H929 human cancer cell lines
Assay: Cellular viability / proliferation (Cell TiterGlo, 72 h)
Format: cell-based
Conditions: Homo sapiens, NCI-H929, 72 h, read-out: GI50 on cellular proliferation of H929 human cancer cell lines, H929 cells, 72 h, Cell TiterGlo, 10% FBS
Method: Cellular Viability of Human Tumor Cell Lines To evaluate compound effect on cellular proliferation, cells were plated at 1,000 cells/well in 96-well tissue culture plates in a total volume of 90 μL medium supplemented with 10% FBS (Sigma, Saint Louis, Mo.). […] Luminescence is measured on a BioTek Cytation 3. Luminescence values are imported into a template in XLFit (Guildford, Surrey, UK) that uses a four-parameter fit to generate an IC50 value for each compound dilution series on the plate.
Readings of GI50 for the listed compounds
measured-metric: GI50 (nM)

>>> observed_measurement("Cc1cc(OCCCc2c3n(c4c(-c5c(C)nn(C)c5C)c(Cl)ccc24)CCCN(c2cc(C(=O)O)cc4c2ccn4S(C)(=O)=O)C3=O)cc(C)c1Cl")
7600
>>> observed_measurement("Cc1cc(OCCCc2c3n(c4c(-c5c(C)nn(C)c5C)c(Cl)ccc24)[C@H](C)CN(c2cc(OCC4COC4)cc4cc(C(=O)O)n(C)c24)C3=O)cc(C)c1Cl")
510
>>> observed_measurement("Cc1cc(OCCCc2c3n(c4c(-c5c(C)nn(CC6CCOCC6)c5C)c(Cl)ccc24)[C@H](C)CN(c2cccc4c(C(=O)O)cn(C)c24)C3=O)cc(C)c1Cl")
410
>>> observed_measurement("COCCn1cc(N2C[C@@H](C)n3c(c(CCCOc4cc(C)c(Cl)c(C)c4)c4ccc(Cl)c(-c5c(C)nn(C)c5C)c43)C2=O)c2cc(-c3ncn(CC4CCOCC4)n3)ccc21")
430
>>> observed_measurement("Cc1cc(OCCCc2c3n(c4c(-c5c(C)ncnc5C)c(Cl)ccc24)[C@H](C)CN(c2cccc4cc(C(=O)O)cnc24)C3=O)cc(C)c1Cl")
1300
>>> observed_measurement("CC(=O)N1CCN(S(=O)(=O)c2ccc3c(c2)c(N2C[C@@H](C)n4c(c(CCCOc5cc(C)c(Cl)c(C)c5)c5ccc(Cl)c(-c6c(C)nn(C)c6C)c54)C2=O)cn3C)CC1")
1500
>>> observed_measurement("Cc1cc(N2C[C@@H](C)n3c(c(CCCOc4cc(C)c(Cl)c(C)c4)c4ccc(Cl)c(-c5c(C)nn(C)c5C)c43)C2=O)c2c(c1)cc(C(=O)O)n2CCN1CCOCC1")
690
